Tested on: CSNK1G2;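 also: KINOMEscan kinase panel screen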
Settings: concentration: 1 μM, replicates: in singlicate; n = 1
reported_endpoint: %Inh (%)
Write the value in % as a bare number.

molecule=O=c1cc(N2CCOCC2)nc2n(Cc3cccc(Cl)c3Cl)c3ccccc3n12 target_under_test=CSNK1G2 readout_value=0
molecule=COc1nccc(-c2c(-c3ccc(F)cc3)ncn2CCCN2CCOCC2)n1 target_under_test=CSNK1G2 readout_value=0
molecule="COC(=O)c1cccc(NC(=O)NC2CCN(c3ccnc(Nc4ccc(OC)cc4)n3)C2)c1 (centres unmarked)" target_under_test=CSNK1G2 readout_value=0
molecule=COc1ccc(CSc2nnc(-c3ccc4nccn4c3)o2)cc1C(F)(F)F target_under_test=CSNK1G2 readout_value=0
molecule=Cc1c(Cn2c(C)c(C)n3c(=O)cc(N4CCOCC4)nc23)cccc1C(F)(F)F target_under_test=CSNK1G2 readout_value=0

Using the record for Cn1cncc1-c1cc2c(Nc3ccc(OCc4ccccc4)cc3)ncnc2cn1 , state its measured %Inh.
0

Using the record for CC(=O)c1c(C)c2cnc(Nc3ccn(C)n3)nc2n(C2CCCC2)c1=O , state its measured %Inh.
0

Using the record for O=C1NC(=O)C(c2ccc(Cl)cc2)=C1Nc1cccc(Cl)c1 , state its measured %Inh.
0
